- tested_target: Cholinesterase (Equus caballus)
- Sequence (P81908 whole entry): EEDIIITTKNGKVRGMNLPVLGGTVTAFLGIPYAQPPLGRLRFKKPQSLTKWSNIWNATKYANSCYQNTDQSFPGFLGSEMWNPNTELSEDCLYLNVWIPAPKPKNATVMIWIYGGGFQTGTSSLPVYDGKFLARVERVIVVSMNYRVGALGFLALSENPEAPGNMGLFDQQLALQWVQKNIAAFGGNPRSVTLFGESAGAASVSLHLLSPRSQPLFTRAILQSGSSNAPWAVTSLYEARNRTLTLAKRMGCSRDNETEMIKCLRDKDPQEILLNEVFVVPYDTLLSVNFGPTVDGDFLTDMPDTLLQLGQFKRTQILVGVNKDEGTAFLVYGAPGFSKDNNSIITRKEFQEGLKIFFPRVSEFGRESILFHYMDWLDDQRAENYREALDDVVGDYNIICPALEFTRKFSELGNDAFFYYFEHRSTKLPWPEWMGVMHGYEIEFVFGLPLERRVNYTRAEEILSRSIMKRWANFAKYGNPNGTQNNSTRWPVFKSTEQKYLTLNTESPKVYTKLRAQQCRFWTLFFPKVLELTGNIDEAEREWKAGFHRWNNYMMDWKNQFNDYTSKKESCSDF
- protocol: Inhibition of equine serum BuChE using butyrylthiocholine iodide as substrate preincubated for 10 mins followed by substrate addition and measured every min for 10 mins by DTNB based Ellman's assay
measurement_name: IC50
Your answer should be a number followed by the unit of measure.

structure_notation	measurement_name	assay_value
O=C(NCCCCCNc1c2c(nc3ccccc13)CCCC2)C1CCN(C(=O)c2ccccc2F)CC1	IC50	34 nM
O=C(NCCCCCNc1c2c(nc3ccccc13)CCCC2)C1CCN(C(=O)c2ccncc2)CC1	IC50	84 nM
O=C(NCCCCCNc1c2c(nc3ccccc13)CCCC2)C1CCN(C(=O)c2cccnc2)CC1	IC50	98.5 nM

[Q] Sample `O=C(NCCCCCNc1c2c(nc3ccccc13)CCCC2)C1CCN(C(=O)c2ccccc2Cl)CC1` — what was its IC50?
[A] 82.5 nM

[Q] Sample `O=C(NCCCCCNc1c2c(nc3ccccc13)CCCC2)C1CCN(C(=O)c2cccc(F)c2)CC1` — what was its IC50?
[A] 73.5 nM

[Q] Sample `COc1cccc(C(=O)N2CCC(C(=O)NCCCCCNc3c4c(nc5ccccc35)CCCC4)CC2)c1` — what was its IC50?
[A] 60.5 nM

[Q] Sample `O=C(NCCCCCNc1c2c(nc3ccccc13)CCCC2)C1CCN(C(=O)c2cccc(Cl)c2)CC1` — what was its IC50?
[A] 70.5 nM

[Q] Sample `O=C(NCCCCCNc1c2c(nc3ccccc13)CCCC2)C1CCN(C(=O)c2ccc(Cl)cc2)CC1` — what was its IC50?
[A] 114 nM

Reference source for all entries: ChEMBL document CHEMBL5335825
